Where these numbers come from: patent US8835472B2

Here's a batch of compounds along with measured pIC50 for human ACC2 (Homo sapiens (Human), UniProt O00763).
Conceptually, pIC50 converts a concentration in mol/L into minus its log10.

COCCN(C)c1nccc(C#Cc2ccc(CC(C)NC(C)=O)cc2)n1 (centres unmarked) [Example 11.1]
5.92
COc1ccc(C#Cc2ccc(CC(C)NC(C)=O)cc2)c(Cl)c1 (centres unmarked) [Example 3.15]
6.46
CCOc1ccc(C#Cc2ccc(CC(C)NC(=O)c3cocn3)cc2)cc1 (centres unmarked) [Example 4.56]
5.25
CSc1ccc(C#Cc2ccc(C(C)NC(C)=O)cc2)cc1 (centres unmarked) [Example 2.101]
6.46

Would you kindly look at the next entry?
Let me check: CC(=O)NC(C)Cc1ccc(C#Cc2ccc(OCCc3ccncc3)cc2)cc1 (centres unmarked) [Example 9.23] , system human ACC2 (Homo sapiens (Human), UniProt O00763), measured pIC50 is 6.40

###

Biological target: UniProt:O00763
Reported endpoint: IC50 (nM)
Give the value in nM but do not write nM after it.

Solved entries:
CC(=O)NC(C)Cc1ccc(C#Cc2ccnc(N(C)CC(F)(F)F)n2)cc1 (stereo not drawn) [Example 11.33]
680
COC1(C)CCN(c2ncc(C#Cc3ccc(CC(C)NC(C)=O)cc3)cn2)CC1 (stereo not drawn) [Example 13.74]
1700
CNC(=O)c1ccc(C#Cc2ccc(CC(C)NC(C)=O)cc2)cc1 (stereo not drawn) [Example 8.44]
22100

Let me check: CC(=O)NC(C)Cc1ccc(C#Cc2ccc(C(=O)N(C)Cc3ccccc3)cc2)cc1 (stereo not drawn) [Example 8.9] , system UniProt:O00763, measured IC50 is 3700

Let me check: CC(=O)NC(C)Cc1ccc(C#Cc2cnc(OC3Cc4ccccc4C3)nc2)cc1 (stereo not drawn) [Example 12.52] , system UniProt:O00763, measured IC50 is 430

Let me check: CC(=O)NC(C)Cc1ccc(C#Cc2cnc(N3CCCCC3)nc2)cc1 (stereo not drawn) [Example 13.7] , system UniProt:O00763, measured IC50 is 260

###

Target: human ACC2 (Homo sapiens (Human), UniProt O00763)
Sequence (O00763 129-2458): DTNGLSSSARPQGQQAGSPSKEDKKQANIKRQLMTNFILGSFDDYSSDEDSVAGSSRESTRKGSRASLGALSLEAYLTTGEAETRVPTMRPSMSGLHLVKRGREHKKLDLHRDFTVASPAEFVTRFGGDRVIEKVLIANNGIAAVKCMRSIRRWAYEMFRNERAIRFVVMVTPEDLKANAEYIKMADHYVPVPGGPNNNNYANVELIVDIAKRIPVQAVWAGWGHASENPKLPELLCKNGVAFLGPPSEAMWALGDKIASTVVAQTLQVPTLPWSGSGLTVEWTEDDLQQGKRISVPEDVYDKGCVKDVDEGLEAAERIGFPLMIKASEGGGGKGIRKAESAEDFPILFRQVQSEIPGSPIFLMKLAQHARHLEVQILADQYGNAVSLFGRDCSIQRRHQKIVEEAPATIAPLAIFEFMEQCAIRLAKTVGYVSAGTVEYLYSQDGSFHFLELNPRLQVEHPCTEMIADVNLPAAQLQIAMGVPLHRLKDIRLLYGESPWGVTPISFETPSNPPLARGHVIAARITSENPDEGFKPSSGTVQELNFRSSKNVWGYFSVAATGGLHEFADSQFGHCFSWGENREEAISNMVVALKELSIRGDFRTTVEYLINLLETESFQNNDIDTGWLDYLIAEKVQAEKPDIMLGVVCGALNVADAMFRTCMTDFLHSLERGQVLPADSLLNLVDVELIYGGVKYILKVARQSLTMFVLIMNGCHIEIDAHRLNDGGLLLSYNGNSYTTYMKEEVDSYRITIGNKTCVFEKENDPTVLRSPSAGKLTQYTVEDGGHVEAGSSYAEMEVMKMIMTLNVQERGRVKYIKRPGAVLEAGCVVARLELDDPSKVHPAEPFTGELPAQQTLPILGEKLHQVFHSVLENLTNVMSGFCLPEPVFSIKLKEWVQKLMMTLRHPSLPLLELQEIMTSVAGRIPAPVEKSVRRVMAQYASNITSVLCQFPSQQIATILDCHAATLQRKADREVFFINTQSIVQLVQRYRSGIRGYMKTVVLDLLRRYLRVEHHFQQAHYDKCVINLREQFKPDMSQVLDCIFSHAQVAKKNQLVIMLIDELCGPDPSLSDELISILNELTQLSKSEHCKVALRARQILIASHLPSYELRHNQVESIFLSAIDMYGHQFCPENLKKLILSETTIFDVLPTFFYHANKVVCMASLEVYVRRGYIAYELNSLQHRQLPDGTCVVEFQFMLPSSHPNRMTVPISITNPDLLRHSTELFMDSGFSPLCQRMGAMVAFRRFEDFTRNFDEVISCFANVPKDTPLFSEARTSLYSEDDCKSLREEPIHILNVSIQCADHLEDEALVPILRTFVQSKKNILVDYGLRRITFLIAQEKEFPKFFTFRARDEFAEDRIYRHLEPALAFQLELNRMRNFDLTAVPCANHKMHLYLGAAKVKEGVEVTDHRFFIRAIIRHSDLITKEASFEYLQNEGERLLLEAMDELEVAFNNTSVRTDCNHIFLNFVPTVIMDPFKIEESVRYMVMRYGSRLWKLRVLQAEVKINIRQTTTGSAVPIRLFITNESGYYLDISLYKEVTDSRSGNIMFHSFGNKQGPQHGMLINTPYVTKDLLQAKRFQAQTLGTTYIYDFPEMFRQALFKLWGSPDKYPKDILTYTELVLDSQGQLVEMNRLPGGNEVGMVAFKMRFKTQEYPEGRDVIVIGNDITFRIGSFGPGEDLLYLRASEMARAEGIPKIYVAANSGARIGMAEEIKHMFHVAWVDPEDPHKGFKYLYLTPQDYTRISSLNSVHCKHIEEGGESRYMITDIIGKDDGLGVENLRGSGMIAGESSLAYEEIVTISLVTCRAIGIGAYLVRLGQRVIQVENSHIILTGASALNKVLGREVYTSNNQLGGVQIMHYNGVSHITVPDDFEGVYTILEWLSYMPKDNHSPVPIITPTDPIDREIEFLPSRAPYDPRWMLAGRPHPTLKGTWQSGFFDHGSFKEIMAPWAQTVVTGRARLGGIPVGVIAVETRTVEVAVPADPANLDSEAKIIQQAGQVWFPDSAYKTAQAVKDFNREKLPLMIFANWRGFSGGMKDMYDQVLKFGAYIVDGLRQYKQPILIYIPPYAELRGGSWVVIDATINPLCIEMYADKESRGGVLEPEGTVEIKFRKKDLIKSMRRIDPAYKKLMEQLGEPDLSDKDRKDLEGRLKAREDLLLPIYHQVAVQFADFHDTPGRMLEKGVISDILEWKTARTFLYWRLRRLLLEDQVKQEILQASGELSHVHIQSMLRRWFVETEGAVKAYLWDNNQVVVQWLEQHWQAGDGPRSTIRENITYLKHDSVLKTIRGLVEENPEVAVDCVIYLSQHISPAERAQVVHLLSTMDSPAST
// reported IC50 for each item listed
Respond with a number, then the unit of measure.

Solved entries:
CCOc1ccc(C#Cc2ccc(CC(C)NC(=O)N(C)C)cc2)cc1 (centres unmarked) [Example 7.2]
190 nM
CCOc1ccc(C#Cc2ccc(CC(C)NC(=O)[C@H](C)OC)cc2)cc1 (some centres unmarked) [Example 4.50]
6300 nM
CC(=O)NC(C)Cc1ccc(C#Cc2cnc(OCCC(C)C)nc2)cc1 (centres unmarked) [Example 12.19]
1200 nM

For reference, reported IC50 for CC(=O)NC(C)Cc1ccc(C#Cc2cccc(C(=O)NCCN3CCOCC3)c2)cc1 (centres unmarked) [Example 8.24] stands at 30000 nM

For reference, reported IC50 for CC(=O)NC(C)Cc1ccc(C#Cc2ccnc(OC3CCC3)n2)cc1 (centres unmarked) [Example 12.6] stands at 1100 nM

###

Molecular target: human ACC2 (Homo sapiens (Human))
Grouping key: IC50. Bins: lower segment (below 100 nM), middle segment (100 nM to below 5000 nM), upper segment (5000 nM or more)

Reference set (8 entries):
CCCOc1ccc(C#Cc2ccc(C[C@H](C)NC(C)=O)cc2)cc1 [Example 23.6]
lower segment
CC(=O)NC(C)(C)c1ccc(C#Cc2ccc(OC3CCC3)cc2)cc1 [Example 2.42]
upper segment
CC(=O)NC(C)Cc1ccc(C#Cc2nccs2)cc1 (stereo not drawn) [Example 3.16]
middle segment
CC(=O)NC(C)Cc1ccc(C#Cc2cc3c(cc2C#N)OCO3)cc1 (stereo not drawn) [Example 3.7]
upper segment
CC(=O)NCC(C)(C)c1ccc(C#Cc2cnc(NC3CCC3)nc2)cc1 [Example 2.33]
middle segment
CCOc1ccc(C#Cc2ccc(CC(C)NC(=O)C(C)C)cc2)cc1 (stereo not drawn) [Example 4.2]
middle segment
CC(=O)NC(C)c1ccc(C#Cc2ccc(OC3CCC3)cc2)cc1 (stereo not drawn) [Example 2.53]
middle segment
CCOc1cc(C#Cc2ccc(C(C)NC(C)=O)cc2)ccn1 (stereo not drawn) [Example 2.102]
middle segment

Kindly review the next compound as well.
Query block: Input CC(=O)N[C@@H](C)Cc1ccc(C#Cc2ccc(C(C)(C)C)cc2)cc1 [Example 23.4] ; output its category
Result block: lower segment

###

Target: human ACC2 (Homo sapiens (Human), UniProt O00763)
Rule: IC50 below 400 nM gives satisfied, anything at or above gives not satisfied.

COC(=O)NC(C)Cc1ccc(C#Cc2cnc(N3CC4CCCC4C3)nc2)cc1 (stereo not drawn)
satisfied
CCOc1ccc(C#Cc2ccc(CC(C)NC(=O)C3CC(=O)N(C)C3)cc2)cc1 (stereo not drawn)
not satisfied
CCC(C)Nc1ncc(C#Cc2ccc(CC(C)NC(=O)N(C)C)cc2)cn1 (stereo not drawn)
satisfied
CC(=O)NC(C)Cc1ccc(C#Cc2cnc(N3CCC(C)(C)CC3)nc2)cc1 (stereo not drawn)
satisfied
CC(=O)NC(C)Cc1ccc(C#Cc2ccc(C3CC3)cn2)cc1 (stereo not drawn)
not satisfied

Query block: Is it true that IC50 reported for CC(=O)NC(C)Cc1ccc(C#Cc2cccc(Oc3cncnc3)c2)cc1 (stereo not drawn) is less than 400 nM?
Result block: not satisfied

Query block: Is it true that IC50 reported for CC(=O)NC(C)Cc1ccc(C#Cc2cnn(-c3ccccc3)c2)cc1 (stereo not drawn) is less than 400 nM?
Result block: not satisfied

Query block: Is it true that IC50 reported for CCCOc1cc(C#Cc2ccc(CC(C)NC(C)=O)cc2)ccn1 (stereo not drawn) is less than 400 nM?
Result block: satisfied

Query block: Is it true that IC50 reported for CC(=O)NC(C)Cc1ccc(C#Cc2ccc(OC3CCC3)cc2)cc1 (stereo not drawn) is less than 400 nM?
Result block: satisfied

Query block: Is it true that IC50 reported for CC(=O)NC(C)Cc1ccc(C#Cc2ccc(C(=O)NCc3cccnc3)cc2)cc1 (stereo not drawn) is less than 400 nM?
Result block: not satisfied

Query block: Is it true that IC50 reported for CCC(C)Nc1ncc(C#Cc2ccc(CC(C)NC(C)=O)cc2)cn1 (stereo not drawn) is less than 400 nM?
Result block: satisfied

Query block: Is it true that IC50 reported for CC(=O)NC(C)Cc1ccc(C#Cc2ccnc(N3CCN(C)CC3)n2)cc1 (stereo not drawn) is less than 400 nM?
Result block: not satisfied

Query block: Is it true that IC50 reported for CCOc1ccc(C#Cc2ccc(CC(C)NC(=O)c3ccncc3)cc2)cc1 (stereo not drawn) is less than 400 nM?
Result block: not satisfied

Query block: Is it true that IC50 reported for COC1CN(c2nccc(C#Cc3ccc(CC(C)NC(C)=O)cc3)n2)C1 (stereo not drawn) is less than 400 nM?
Result block: not satisfied

Query block: Is it true that IC50 reported for CC(=O)NC(C)Cc1ccc(C#Cc2cccc(C(=O)NCC3CC3)c2)cc1 (stereo not drawn) is less than 400 nM?
Result block: not satisfied

Query block: Is it true that IC50 reported for CC(=O)NC(C)Cc1ccc(C#Cc2ccnc(N3CCCCC3C)n2)cc1 (stereo not drawn) is less than 400 nM?
Result block: not satisfied

Query block: Is it true that IC50 reported for CCN(C)c1ncc(C#Cc2ccc(CC(C)NC(C)=O)cc2)cn1 (stereo not drawn) is less than 400 nM?
Result block: not satisfied

Query block: Is it true that IC50 reported for CC(=O)NC(C)Cc1ccc(C#Cc2ccc3c(ccn3CCO)c2)cc1 (stereo not drawn) is less than 400 nM?
Result block: not satisfied

Query block: Is it true that IC50 reported for CC(=O)NC(C)Cc1ccc(C#Cc2cccc(OCCN3CCCCC3)c2)cc1 (stereo not drawn) is less than 400 nM?
Result block: not satisfied

Query block: Is it true that IC50 reported for CCOc1ccc(C#Cc2ccc(CC(C)NC(=O)CC(C)C)cc2)cc1 (stereo not drawn) is less than 400 nM?
Result block: satisfied

###

Here's a batch of compounds along with measured pIC50 for UniProt O00763.
Conceptually, pIC50 converts a concentration in mol/L into minus its log10.

COc1ccc(C#Cc2ccc(CC(C)NC(C)=O)cc2)cc1 (stereo not drawn) [Example 2.30]
6.48

Let me check: CC(=O)NC(C)Cc1ccc(C#Cc2ccc(C(=O)N3CCCCC3)cc2)cc1 (stereo not drawn) [Example 8.1] , system UniProt O00763, measured pIC50 is 6.30

Let me check: CC(=O)NC(C)Cc1ccc(C#Cc2ccnc(NC(C)C3CC3)n2)cc1 (stereo not drawn) [Example 11.19] , system UniProt O00763, measured pIC50 is 5.23

Let me check: CC(=O)NC(C)Cc1ccc(C#Cc2ccc(OCC3(C)CC3)cc2)cc1 (stereo not drawn) [Example 9.11] , system UniProt O00763, measured pIC50 is 6.74

Let me check: CC(=O)NC(C)Cc1ccc(C#Cc2cnc(N3CCC4(CC4)C3)nc2)cc1 (stereo not drawn) [Example 13.72] , system UniProt O00763, measured pIC50 is 6.72

Let me check: COc1ccc(Nc2nccc(C#Cc3ccc(CC(C)NC(C)=O)cc3)n2)cn1 (stereo not drawn) [Example 11.5] , system UniProt O00763, measured pIC50 is 5.14
